# System: RPMI-8226 leukemia
# ASSAY_OVERVIEW: NCI-60 one-dose screen, 48 h
# CONDITION: 10 µM unless noted
This is part of a sample that, as a whole, favours compounds with a hit. Of some 83,000 tested, about 20% had one in any assay. Calls of active or inactive are those of the source. Rule for the calls: active = growth percent below 10; inactive = the rest.
The categories you may choose from are yes (active), no (inactive)

For orientation, consider the following solved cases.
COMPOUND | CAT
CCN(CC)CCCC(C)Nc1c2ccc(Cl)cc2nc2ccc(O)cc12 (stereo not given) | no
Cn1c(=O)c2[nH]c(NN)nc2n(C)c1=O | no
CN(C)c1ccc(-c2cc(-c3ccc(Nc4nc(Nc5ccc(Cl)cc5)nc(Nc5ccc(Cl)cc5)n4)cc3)no2)cc1 | yes
Cc1ccc(C(=O)C2=C(O)C(=O)N(Cc3cccnc3)C2c2ccccc2F)o1 (stereo not given) | no

Any idea what this test logged for O=c1[nH][n+](-c2ccc(Cl)cc2)no1 ? no

Same question, COc1ccc(-c2cc(-c3cc(OC)ccc3OC)nc(SCC(=O)c3ccccc3)c2C#N)cc1 this time no

Queued: N#CC1=C(/N=C/c2ccccc2)Oc2c(ccc3ccccc23)C1c1ccccc1 (stereo not given) no

What do you get for CC(C)C(=O)Nc1n[nH]c2cc(-c3cccc(NS(=O)(=O)C4CC4)c3)ccc12 ? no

How about this compound: O=C(CCc1nnc(CN(c2ccccc2)c2ccccc2)o1)c1nc2ccccc2[nH]1 no

How about this compound: O=C(Nc1ccccc1Cl)Oc1ccc(-c2ccccc2)cc1 no

* * *

# Test system: U251 CNS
# ASSAY_OVERVIEW: NCI-60 one-dose screen, 48 h
# CONDITION: 10 µM unless noted
About 83,000 compounds went through this panel and 20% of them were active in at least one assay; those are over-represented in the sample as a whole. The source made the active and inactive calls. How the source made its calls: active means growth percent below 10; inactive means the rest.
Lab note: assign the record to one of active, inactive

Some entries whose results are on file:
COMPOUND | TARGET_OR_TEST_SYSTEM | CAT
COc1cc(-c2n/c(=C\c3c(O)[nH]c4ccc(Cl)cc34)cc3c2=Nc2ccccc2-3)cc(OC)c1OC | U251 CNS | active
Oc1ccc(CN2CCC(N3CCOCC3)CC2)c2cccnc12 | U251 CNS | inactive
O=C(Nc1ccccc1Cl)Oc1ccc(-c2ccccc2)cc1 | U251 CNS | inactive

Call for entry Cc1c(C(=O)N[C@@H](Cc2ccccc2)C(=O)C(=O)NCCc2ccccc2)[nH]c2ccccc2c1=O : inactive

How about this compound: Cc1c(O)cc(-c2cnc(N/N=C\c3ccc(Cl)cc3)s2)c(O)c1C inactive

Try this compound too: NS(=O)(=O)c1cnccc1Oc1cccc2cccnc12 inactive

Next: COc1ccc(/C=N/C2=C(C#N)C(c3ccc(OC)cc3)c3ccc4ccccc4c3O2)cc1 (stereo not given) inactive

What would you report for CC/C=C\CCC/C=C1/C(=O)C=C[C@@H]1C/C=C\CCCC(=O)O ? inactive

Follow-up entry: CNS(=O)(=O)c1n[nH]nc1-c1cc(C(C)(C)C)c(O)c(C(C)(C)C)c1 inactive

Cool, now COc1cccc(-c2nn(-c3ccccc3)cc2-c2ccnc(NCCCNC(=O)c3cccc(C(F)(F)F)c3)c2)c1 inactive

* * *

# System: NCI-H226 lung
# ASSAY_OVERVIEW: NCI-60 one-dose screen, 48 h
# CONDITION: 10 µM unless noted
# Description: Growth inhibition of the NCI-H226 human Non-Small Cell Lung tumor cell line is measured as a screen for anti-cancer activity. Cells are grown in 96 well plates and exposed to the test compound for 48 hours. Compounds are tested at a single concentration, which is 10^-5 M for most compounds. The reported endpoint is percent growth (GI% or GIPRCNT), where numbers from 0 - 100% represent growth inhibition, and numbers from -100% - 0 represent cell death. […]
About 83,000 compounds went through this panel and 20% of them were active in at least one assay; those are over-represented in the sample as a whole. Activity calls are given as the source filed them. The calls were made as follows: active = growth percent below 10; inactive = the rest.
Returns: one label drawn from True (active), False (inactive)

Worked cases, answers included:
TEST_SMILES | CAT
COc1ccc(/C=C/c2c(C(=O)/C=C/c3cccs3)c(C)nc3ccccc23)cc1 | False
CS(=O)(=O)c1ccc(Nc2nc(N[C@H]3CCCC[C@H]3N)nc3cc[nH]c(=O)c23)cc1 | True
COc1ccc(-c2c(N)n[nH]c2-c2ccc(Cl)cc2O)cc1OC | False

Please indicate how the test categorized C=CC(=O)Nc1cccc(Oc2nccc(Nc3nnc(C4CC4)s3)n2)c1 . False

// same read-out, input: O=C(N=c1oc2ccccc2cc1-c1cc2ccccc2[nH]1)c1ccc(Cl)cc1 False
